I'd appreciate it if you could supply inhibition at 10 µM values for the items below.
target: BTK (Homo sapiens, UniProt Q06187); assay: biochemical; details: read-out: BTK inhibition (%), 0.75 uM BTK, […] probe 3l, 15 min preincubation
Sequence (Q06187 402-655 limits assumed): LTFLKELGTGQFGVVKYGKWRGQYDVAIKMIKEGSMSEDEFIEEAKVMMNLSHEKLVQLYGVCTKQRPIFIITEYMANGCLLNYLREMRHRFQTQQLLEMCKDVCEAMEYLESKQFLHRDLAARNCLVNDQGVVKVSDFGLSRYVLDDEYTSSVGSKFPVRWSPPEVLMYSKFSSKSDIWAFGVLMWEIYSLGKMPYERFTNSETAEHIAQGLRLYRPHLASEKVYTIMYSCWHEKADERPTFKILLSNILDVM
Reply numerically in %, unit not repeated.

Incoming: If you can, please state the reported inhibition at 10 µM value of CCn1c2ccccc2c2cc(CNCc3ccccc3OC)ccc21 .
Outgoing: -27.8

Incoming: Also, CC(C)(C)C[C@@H]1N[C@@H](C(=O)NC2CCC(O)CC2)[C@H](c2cccc(Cl)c2F)[C@]12C(=O)Nc1cc(Cl)ccc12 (some centres unmarked) please.
Outgoing: 21.6

Incoming: Also, CC1CCCCCCCCCCCCC(=O)C1 (centres unmarked) please.
Outgoing: 0.7

Incoming: Also, CC(C)n1nc(-c2ccc(NC(=O)Nc3cc(C(F)(F)F)ccc3F)cc2)c2c(N)ncnc21 please.
Outgoing: 106

Incoming: Also, CC(C(=O)O)c1ccc2c(c1)CC(=O)c1ccccc1S2 (centres unmarked) please.
Outgoing: -15.9

Incoming: Also, Cc1ccc(NC(=O)c2ccc(CN3CC[C@H](N(C)C)C3)c(C(F)(F)F)c2)cc1Nc1nccc(-c2cncnc2)n1 please.
Outgoing: 36.6

Incoming: Also, CN(C)C(=O)c1cc2cnc(Nc3ccc(N4CCNCC4)cn3)nc2n1C1CCCC1 please.
Outgoing: -7.7

Incoming: Also, O=C1CCN(c2ccccc2)N1 please.
Outgoing: -12.4

---

biological target: BTK (Homo sapiens); assay: biochemical; details: read-out: BTK inhibition (%), 0.75 uM BTK, […] probe 3l, 15 min preincubation
Measurement kind: inhibition at 10 µM (%)
Reply numerically in %, unit not repeated.

Incoming: What measured inhibition at 10 µM is associated with COC(=O)/C=C/C(=O)OC on BTK (Homo sapiens)?
Outgoing: 1.4

Incoming: Also, CCC1(c2ccccc2)C(=O)NCNC1=O please.
Outgoing: -17.1

Incoming: Also, O=C(O)c1c[nH]c2cc(Cl)c(-c3ccc(C4(O)CCC4)cc3)cc12 please.
Outgoing: 24.7

Incoming: Also, Cc1ccc2c(c1)C(=O)[C@]1(O)CCN(c3ccccc3)C1=N2 please.
Outgoing: -6.9

Incoming: Also, CN1CCN(C(=O)c2ccc(-c3ccc4c(C=O)c(O)ccc4c3)s2)CC1 please.
Outgoing: 77.2

Incoming: Also, C=C1C2CCC(C2)C1(C)C (stereo not drawn) please.
Outgoing: 18.5

Incoming: Also, Cc1cc2c(s1)Nc1ccccc1N=C2N1CCN(C)CC1 please.
Outgoing: -8.6

Incoming: Also, CN[C@@H]1[C@H](O)[C@H](NC)[C@H]2O[C@@]3(O)C(=O)C[C@@H](C)O[C@H]3O[C@@H]2[C@H]1O please.
Outgoing: 2.3

Incoming: Also, NCC[C@H](O)C(=O)N[C@@H]1C[C@H](N)[C@@H](O[C@H]2O[C@H](CN)[C@@H](O)[C@H](O)[C@H]2O)[C@H](O)[C@H]1O[C@H]1O[C@H](CO)[C@@H](O)[C@H](N)[C@H]1O please.
Outgoing: 9.4

Incoming: Also, NC12CC3CC(CC(C3)C1)C2 please.
Outgoing: -14.8

Incoming: Also, Cn1cc(-c2ccncc2)c(-c2ccc(OCc3ccc4ccccc4n3)cc2)n1 please.
Outgoing: -33.5

Incoming: Also, O=C(Nc1ccc(OC(F)(F)F)cc1)c1sccc1NCc1ccnc2ccccc12 please.
Outgoing: 90.3

Incoming: Also, Cc1cn(CCN2CCN(c3ccccc3-c3cc(C#N)cc(C(=O)NCCCN4CCCC4)c3)CC2)c2ccccc12 please.
Outgoing: 27

Incoming: Also, NCCc1ccccc1 please.
Outgoing: 0

Incoming: Also, CC1(COc2ccc3c(c2)ncn3-c2ccc3cccc(N4CCC(N)CC4)c3n2)COC1 please.
Outgoing: 6.2

Incoming: Also, O=c1c2ccccc2nc2n1CCc1c-2[nH]c2ccccc12 please.
Outgoing: 0.7

Incoming: Also, C[C@H]1Oc2cc(cnc2N)-c2c(nn(C)c2C#N)CN(C)C(=O)c2ccc(F)cc21 please.
Outgoing: 17.9

Incoming: Also, Cc1c[nH]c(=O)[nH]c1=O please.
Outgoing: 14.7

---

biological target: UniProt Q06187; test: biochemical; conditions: read-out: BTK inhibition (%), 0.75 uM BTK, […] probe 3l, 15 min preincubation
I'd appreciate it if you could supply inhibition at 10 µM values for the items below.
# do not omit the unit; it follows the number

Incoming: If you can, please state the reported inhibition at 10 µM value of COc1ncc(-c2ccc3nccc(-c4ccnnc4)c3c2)cc1NS(=O)(=O)c1ccc(F)cc1F .
Outgoing: -18.6%

Incoming: Also, CCC(=O)Nc1cccc(Oc2nc(Nc3ccc(N4CCN(C)CC4)cc3OC)ncc2Cl)c1 please.
Outgoing: -2.1%

Incoming: Also, CC(C)c1cc(C(=O)N2Cc3ccc(CN4CCN(C)CC4)cc3C2)c(O)cc1O please.
Outgoing: -6.2%

Incoming: Also, Nc1c(CC(=O)O)cccc1C(=O)c1ccccc1 please.
Outgoing: -17.2%

Incoming: Also, C[C@@H]1CN(c2c(F)c(N)c3c(=O)c(C(=O)O)cn(C4CC4)c3c2F)C[C@H](C)N1 please.
Outgoing: 2.3%

Incoming: Also, C[C@@H](N)C1CCC(C(=O)Nc2ccncc2)CC1 (stereo partly shown) please.
Outgoing: -2.1%

Incoming: Also, Cc1cncc(CN2CCC(=C3c4ccc(Cl)cc4CCc4cccnc43)CC2)c1 please.
Outgoing: -7.6%

Incoming: Also, CN1CCC(NC(=O)c2cc(-c3c(O)cc(O)cc3Oc3ccc([N+](=O)[O-])cc3)on2)CC1 please.
Outgoing: -10.8%

Incoming: Also, Cc1ccc(C(=O)Nc2ccc(CN3CCN(C)CC3)c(C(F)(F)F)c2)cc1C#Cc1cnc2cccnn12 please.
Outgoing: 92.4%

Incoming: Also, CC(C)=C1C/C=C(\C)CC/C=C(\C)CC1=O please.
Outgoing: -4.6%

Incoming: Also, CC(=O)CCc1ccc(OC(C)=O)cc1 please.
Outgoing: -10.8%

Incoming: Also, NC(=NCCCCCCN=C(N)/N=C(\N)Nc1ccc(Cl)cc1)/N=C(\N)Nc1ccc(Cl)cc1 please.
Outgoing: 3.1%

Incoming: Also, Cc1cc(C(=O)NOCCO)c(Nc2ccc(I)cc2F)n(C)c1=O please.
Outgoing: 2.1%

Incoming: Also, COc1cc2nccc(Oc3ccc(NC(=O)Nc4cc(C)on4)c(Cl)c3)c2cc1OC please.
Outgoing: 84.1%

Incoming: Also, CC1(C)CCC(CN2CCN(c3ccc(C(=O)NS(=O)(=O)c4ccc(NCC5CCOCC5)c([N+](=O)[O-])c4)c(Oc4cnc5[nH]ccc5c4)c3)CC2)=C(c2ccc(Cl)cc2)C1 please.
Outgoing: -5.4%

Incoming: Also, CN([C@@H](Cc1ccc(OS(=O)(=O)c2cccc3cnccc23)cc1)C(=O)N1CCN(c2ccccc2)CC1)S(=O)(=O)c1cccc2cnccc12 please.
Outgoing: 2.1%

---

target: BTK (Homo sapiens); test: biochemical; conditions: read-out: BTK inhibition (%), 0.75 uM BTK, […] probe 3l, 15 min preincubation
Measurement kind: inhibition at 10 µM (%)
Reply numerically in %, unit not repeated.

Incoming: If you can, please state the reported inhibition at 10 µM value of CS(=O)(=O)c1cccc(C[C@H](NC(=O)c2c(Cl)cc3c(c2Cl)CCN(C(=O)c2ccc4ccoc4c2)C3)C(=O)O)c1 [PCM-0214914] .
Outgoing: -4.7

Incoming: Also, O=C(Nc1ccccc1Br)N[C@@H]1CCN(c2ccc(C(F)(F)F)cn2)C1 [PCM-0095337] please.
Outgoing: -17.1

Incoming: Also, N#C/C(=C1/SC[C@@H](c2ccc(Cl)cc2Cl)S1)n1ccnc1 [PCM-0214788] please.
Outgoing: 3.9

Incoming: Also, Nc1ccc(S(=O)(=O)Nc2ccccn2)cc1 [PCM-0086480] please.
Outgoing: -13.6

Incoming: Also, O=C(NNc1nc2cc(F)ccc2n2cccc12)c1cnccn1 [PCM-0215229] please.
Outgoing: 30.1

Incoming: Also, CC(=O)Oc1ccccc1C(=O)Nc1ncc([N+](=O)[O-])s1 [PCM-0090347] please.
Outgoing: 17.9

Incoming: Also, COc1ccc2c(O[C@@H]3C[C@H]4C(=O)N[C@]5(C(=O)NS(=O)(=O)C6CC6)C[C@H]5/C=C\CCCCN(C)C(=O)[C@@H]4C3)cc(-c3nc(C(C)C)cs3)nc2c1C [PCM-0215097] please.
Outgoing: 55.6

Incoming: Also, COC(=O)[C@@H]1CC2=CC(=O)CC[C@]2(C)[C@@]23O[C@@H]2C[C@@]2(C)[C@@H](CC[C@@]24CCC(=O)O4)[C@H]13 [PCM-0215188] please.
Outgoing: -18.7

Incoming: Also, COC(=O)Nc1nc2ccc(C(=O)c3ccc(F)cc3)cc2[nH]1 [PCM-0086402] please.
Outgoing: -3.4

Incoming: Also, NC(=O)[C@H](CCCN=C(N)CCl)NC(=O)c1ccccc1 [PCM-0215816] please.
Outgoing: -5.5

Incoming: Also, CC1CC(=O)c2c(ccc3c2C(=O)c2cccc(O)c2C3=O)C1 (stereo not shown) [PCM-0215599] please.
Outgoing: -3.1

Incoming: Also, COc1ccc2cc(C(=O)O)ccc2c1 [PCM-0216054] please.
Outgoing: -9.3

Incoming: Also, CC[C@]1(O)C[C@H]2CN(CCc3c([nH]c4ccccc34)[C@@](C(=O)OC)(c3cc4c(cc3OC)N(C=O)[C@H]3[C@@](O)(C(=O)OC)[C@H](OC(C)=O)[C@]5(CC)C=CCN6CC[C@]43[C@@H]65)C2)C1 [PCM-0214794] please.
Outgoing: 9

Incoming: Also, C[C@H](N=C(NC#N)Nc1cccc2ncccc12)c1ccccc1 [PCM-0216092] please.
Outgoing: -13.1

Incoming: Also, Cn1c(=O)c(Oc2ccc(F)cc2F)cc2cnc(NC(CCO)CCO)nc21 [PCM-0215718] please.
Outgoing: -30.3

Incoming: Also, N[C@@H]1CCCN(c2c(/C=C3\SC(=O)NC3=O)cccc2-c2ccccc2)C1 [PCM-0095732] please.
Outgoing: 4.1
